Source listed as patent US7163946B2.

Molecular target: hPR-A (Homo sapiens, UniProt P06401)
Sequence (P06401 1-769 isoform P06401-2): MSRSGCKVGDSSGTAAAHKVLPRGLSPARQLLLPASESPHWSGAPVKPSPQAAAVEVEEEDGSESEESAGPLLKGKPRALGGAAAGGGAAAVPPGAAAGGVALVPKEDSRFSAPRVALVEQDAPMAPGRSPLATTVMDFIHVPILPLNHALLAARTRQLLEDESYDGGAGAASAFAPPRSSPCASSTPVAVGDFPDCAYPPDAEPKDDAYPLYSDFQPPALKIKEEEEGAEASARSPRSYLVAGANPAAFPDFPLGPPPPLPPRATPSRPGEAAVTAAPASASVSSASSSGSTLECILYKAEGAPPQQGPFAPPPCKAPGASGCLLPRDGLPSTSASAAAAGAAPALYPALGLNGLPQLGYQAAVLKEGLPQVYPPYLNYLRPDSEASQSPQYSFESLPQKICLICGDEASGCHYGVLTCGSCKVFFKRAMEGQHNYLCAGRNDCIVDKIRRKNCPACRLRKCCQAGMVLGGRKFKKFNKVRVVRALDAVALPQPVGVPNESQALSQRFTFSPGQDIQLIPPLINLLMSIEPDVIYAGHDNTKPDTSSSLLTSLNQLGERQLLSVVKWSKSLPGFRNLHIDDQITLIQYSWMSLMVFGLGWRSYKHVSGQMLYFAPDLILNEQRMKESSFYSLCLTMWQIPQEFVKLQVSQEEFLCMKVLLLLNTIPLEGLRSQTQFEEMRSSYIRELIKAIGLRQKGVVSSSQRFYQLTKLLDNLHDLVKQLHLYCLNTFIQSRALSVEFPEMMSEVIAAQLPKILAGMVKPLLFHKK
pKi: −log10 of the molar value.
Use 8 as the dividing line for pKi, with the line itself on the True side and lower values as False.

COMPOUND	EXPERIMENTAL_SYSTEM	CAT
CC1=CC(C)(C)Nc2ccc3c(c21)C(CC(=O)c1ccccc1)Oc1c(F)cc(F)cc1-3 (racemic)	hPR-A (Homo sapiens, UniProt P06401)	False
CC1=CC(C)(C)Nc2ccc3c(c21)/C(=C/C#N)Oc1c(F)cc(F)cc1-3	hPR-A (Homo sapiens, UniProt P06401)	False
CC1=CC(C)(C)Nc2ccc3c(c21)/C(=C/c1ccsc1)Oc1c(F)cc(F)cc1-3	hPR-A (Homo sapiens, UniProt P06401)	True
CC1=CC(C)(C)Nc2ccc3c(c21)C(c1ccc(Cl)c(C)c1)Oc1c(F)cc(F)cc1-3 (single isomer, unassigned; (-))	hPR-A (Homo sapiens, UniProt P06401)	True
